target: CDK2 CCNA2 (human) (UniProt P20248+P24941); assay: radiometric filter-binding kinase assay; details: compound 0.1 µM
Rule: residual activity of 80% or more gives satisfied; anything lower gives not satisfied.

| Molecule Smiles | Qualitative Label |
| --- | --- |
| NC(=O)Nc1ccc2c(c1)/C(=C/c1cc(-c3cccnc3)c[nH]1)C(=O)N2 | not satisfied |
| COc1cc(O)c2c(c1)/C=C/C[C@H](O)[C@H](O)C(=O)/C=C\C[C@H](C)OC2=O | satisfied |
| c1ccc2c(-c3cnn4cc(-c5ccc(N6CCNCC6)cc5)cnc34)ccnc2c1 | satisfied |
| Cn1c(=O)c2c(ncn2C)n(C)c1=O | satisfied |
| CN(C)C/C=C/C(=O)Nc1cccc(C(=O)Nc2ccc(Nc3nccc(-c4cccnc4)n3)cc2)c1 | satisfied |
| Cc1ccc(Sc2cnc(Nc3cccc(Br)n3)s2)cc1C(=O)N1CCN(C(=O)CN)CC1 | not satisfied |

Attribution: the kinase profiling compilation of Christmann-Franck et al. (2016)
